target.of.assay: 28 CDKs family protein kinases (Homo sapiens, UniProt Q8IZL9)
Construct: purchased ProQinase GmbH; host or cells: Sf9 insect cells or E. coli
Sequence (Q8IZL9 whole entry): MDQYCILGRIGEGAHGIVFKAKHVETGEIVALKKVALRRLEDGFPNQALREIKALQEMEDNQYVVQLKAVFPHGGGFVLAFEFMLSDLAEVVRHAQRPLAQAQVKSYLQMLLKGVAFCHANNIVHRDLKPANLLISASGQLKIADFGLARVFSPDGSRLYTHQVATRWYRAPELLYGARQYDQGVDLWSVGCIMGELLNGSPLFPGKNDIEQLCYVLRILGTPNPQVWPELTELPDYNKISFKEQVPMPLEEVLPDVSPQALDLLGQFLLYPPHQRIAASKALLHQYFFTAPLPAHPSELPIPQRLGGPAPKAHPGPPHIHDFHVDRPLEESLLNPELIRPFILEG
Sequence (P51946 whole entry partner): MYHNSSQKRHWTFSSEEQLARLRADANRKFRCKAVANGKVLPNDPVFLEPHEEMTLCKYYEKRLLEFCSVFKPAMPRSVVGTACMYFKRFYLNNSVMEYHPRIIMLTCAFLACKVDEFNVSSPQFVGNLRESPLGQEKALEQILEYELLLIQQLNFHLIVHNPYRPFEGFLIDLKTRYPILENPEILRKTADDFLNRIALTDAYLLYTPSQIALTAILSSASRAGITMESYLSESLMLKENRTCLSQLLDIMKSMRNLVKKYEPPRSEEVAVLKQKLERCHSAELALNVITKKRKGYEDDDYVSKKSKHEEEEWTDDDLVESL
procedure.details: In vitro IC50 profile for CDKs family kinase (33PanQinase Activity Assay, ProQinase)
Assay type: biochemical
condition.notes: CDK20/CycH; read-out: CDK7 selectivity profile in CDKs family, IC50
parameter: IC50

What value of IC50 has been reported for the following compound? CC(C)c1cnn2c(NCc3ccccc3-c3nccc4cc(NC(=O)/C=C/CN(C)C)ccc34)nc(N3CCC(N)CC3)nc12 > 10 µM

* * *

target.of.assay: 28 CDKs family protein kinases (Homo sapiens)
Construct: purchased ProQinase GmbH; host or cells: Sf9 insect cells or E. coli
procedure.details: In vitro IC50 profile for CDKs family kinase (33PanQinase Activity Assay, ProQinase)
Assay type: biochemical
condition.notes: CDK2/CycD1; read-out: CDK7 selectivity profile in CDKs family, IC50
parameter: IC50

I have this compound here, CC(C)c1cnn2c(NCc3ccccc3-c3nccc4cc(NC(=O)/C=C/CN(C)C)ccc34)nc(N3CCC(N)CC3)nc12 , and I need its recorded IC50. > 10 µM

* * *

target.of.assay: CDK1/Cyclin B (Homo sapiens, UniProt P06493)
Construct: purchased Invitrogen PR4768C
Sequence (P06493 whole entry): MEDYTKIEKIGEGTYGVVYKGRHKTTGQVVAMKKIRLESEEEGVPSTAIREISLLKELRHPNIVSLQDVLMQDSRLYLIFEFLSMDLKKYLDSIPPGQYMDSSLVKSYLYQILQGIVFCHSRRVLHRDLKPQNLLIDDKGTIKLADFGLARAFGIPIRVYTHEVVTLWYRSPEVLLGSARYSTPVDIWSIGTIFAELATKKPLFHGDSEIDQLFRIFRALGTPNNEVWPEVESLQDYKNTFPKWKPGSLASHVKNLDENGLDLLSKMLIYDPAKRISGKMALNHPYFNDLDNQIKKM
Sequence (P14635 whole entry partner): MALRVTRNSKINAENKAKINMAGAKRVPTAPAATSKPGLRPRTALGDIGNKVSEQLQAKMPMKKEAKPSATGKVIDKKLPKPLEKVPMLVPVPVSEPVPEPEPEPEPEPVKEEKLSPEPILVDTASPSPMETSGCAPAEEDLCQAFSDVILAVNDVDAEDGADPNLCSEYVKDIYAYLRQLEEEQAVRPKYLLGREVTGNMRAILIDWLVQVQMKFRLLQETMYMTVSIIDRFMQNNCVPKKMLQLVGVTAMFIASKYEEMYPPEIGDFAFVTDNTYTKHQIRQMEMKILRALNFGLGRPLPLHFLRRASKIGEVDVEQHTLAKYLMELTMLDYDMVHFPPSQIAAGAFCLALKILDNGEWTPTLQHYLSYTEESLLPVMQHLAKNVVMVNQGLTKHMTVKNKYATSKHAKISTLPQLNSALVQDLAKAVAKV
procedure.details: Enzymatic assay for CDK1 (LANCE Ultra kinase assay, FRET based)
Assay type: biochemical
condition.notes: ATP at Km; read-out: CDK1 enzymatic activity IC50
pIC50: −log10 of the molar value.
We begin with a simple list: items and their reported pIC50.

Solved cases (3 shown):
- compound: "C/C=C/C(=O)Nc1ccc2c(-c3ccccc3CNc3cc(NC[C@H]4CCNC[C@@H]4O)nc4c(C(C)C)cnn34)nccc2c1 [Compound 72]"
  pIC50: "< 6.00"
- compound: "CC(C)c1cnn2c(NCc3ccccc3-c3nccc4cc(NC(=O)/C=C/CN(C)C)ccc34)nc(N3CCC(NC(=O)OC(C)(C)C)CC3)nc12 [Compound 75]"
  pIC50: "< 6.00"
- compound: "CC(C)c1cnn2c(NCc3cccc(Oc4cccc(NC(=O)/C=C/CN(C)C)c4)c3)nc(N3CCC(N)CC3)nc12 [Compound 2]"
  pIC50: "6.00 to 7.00"

I am curious: what pIC50 value has been reported for CC(C)c1cnn2c(NCc3ccccc3-c3nccc4cc(NC(=O)/C=C/CN5CCCCC5)ccc34)nc(NC[C@H]3CCNC[C@@H]3O)nc12 [Compound 76] ? < 6.00

For the compound C=CC(=O)Nc1ccc2c(-c3ccccc3CNc3nc(Nc4ccncc4)nc4c(C(C)C)cnn34)nccc2c1 [Compound 189] , what pIC50 is on record? < 6.00

// lookup pIC50 for CC(C)c1cnn2c(NCc3ccccc3-c3nccc4cc(NC(=O)/C=C/CN5CCOCC5)ccc34)nc(NC3CCC(C)(C)NC3)nc12 (stereo not drawn) [Compound 180] < 6.00

* * *

target.of.assay: CDK5/p25 (Homo sapiens)
Sequence (Q00535 whole entry): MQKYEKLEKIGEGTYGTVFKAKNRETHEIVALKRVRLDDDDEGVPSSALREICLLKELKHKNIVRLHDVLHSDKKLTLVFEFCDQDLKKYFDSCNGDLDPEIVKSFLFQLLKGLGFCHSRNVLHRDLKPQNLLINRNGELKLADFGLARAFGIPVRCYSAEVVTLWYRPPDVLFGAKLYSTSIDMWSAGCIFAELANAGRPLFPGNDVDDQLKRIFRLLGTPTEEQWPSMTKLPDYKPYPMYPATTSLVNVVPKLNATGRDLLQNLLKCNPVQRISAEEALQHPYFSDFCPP
Sequence (Q15078 99-307 partner limits assumed): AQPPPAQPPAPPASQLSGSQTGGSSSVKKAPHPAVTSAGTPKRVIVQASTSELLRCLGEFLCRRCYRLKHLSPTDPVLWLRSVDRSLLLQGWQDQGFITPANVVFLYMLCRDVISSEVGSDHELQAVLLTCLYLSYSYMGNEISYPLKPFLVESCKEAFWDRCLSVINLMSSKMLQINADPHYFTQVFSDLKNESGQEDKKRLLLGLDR
procedure.details: Enzymatic assay for CDK5 (LANCE Ultra kinase assay, FRET based)
condition.notes: ATP at Km
parameter: IC50

Example entries and their recorded answers appear below.
- compound: "CC(C)c1cnn2c(NCc3ccccc3-c3nccc4cc(NC(=O)/C=C/CN(C)C)ccc34)nc(N3CC4COCC4C3)nc12 (stereo not drawn)"
  IC50: "> 1000 nM"
- compound: "CC(C)c1cnn2c(NCc3ccccc3-c3nccc4cc(NC(=O)/C=C/CN(C)C)ccc34)nc(N3CCC(NC(=O)OC(C)(C)C)CC3)nc12"
  IC50: "> 1000 nM"
- compound: "CC(C)c1cnn2c(NCc3ccccc3-c3nccc4cc(NC(=O)/C=C/CN(C)C)ccc34)nc(OC3CC4CCC(C3)N4C)nc12 (stereo not drawn)"
  IC50: "> 1000 nM"
- compound: "C=CC(=O)Nc1ccc2c(-c3ccccc3CNc3nc(NC[C@H]4CCNC[C@@H]4O)nc4c(C(C)C)cnn34)nccc2c1"
  IC50: "> 1000 nM"
- compound: "CC(C)c1cnn2c(NCc3cccc(Oc4cccc(NC(=O)/C=C/CN(C)C)c4)c3)nc(N3CCC(N)CC3)nc12"
  IC50: "100 to 1000 nM"

Requested read-out IC50, target or system CDK5/p25 (Homo sapiens), entry C=C(C)C(=O)Nc1ccc2c(-c3ccccc3CNc3cc(C(F)(F)F)nc4c(C(C)C)cnn34)nccc2c1 > 1000 nM
